The reported numbers originate from the NIST ThermoML archive (doi:10.1021/je0503857).

settings: 298.15 K; Liquid; Gas chromatography
Measured vapor or sublimation pressure, listed per entry.
Please give a number only; it is taken to be in kPa.

Below: 5 compounds and their reported vapor or sublimation pressure.
• CC(C)CCC[C@@H](C)[C@H]1CC[C@H]2[C@@H]3CC=C4C[C@@H](O)CC[C@]4(C)[C@H]3CC[C@]12C = 7.557e-11
• CCCCCCCCC(O)CCCCCCCC = 1.895e-06
• CCCCCCCCCCCCCCCCCCCCO = 3.215e-08
• CCCCCCCCCCC(O)CCCCCC (configuration not stated) = 1.959e-06
• CCCCCCCCCCCCCCCCCO = 6.86e-07

Prompt: Quickly give me recorded vapor or sublimation pressure for CCCCCCCCCCCC(O)CCCCC (configuration not stated)
Response: 1.813e-06

Prompt: Using the record for CCCCCCCCCCCCCCCCCCCCCCCCCCO , state its measured vapor or sublimation pressure.
Response: 6.401e-11
